This listing pairs molecules with measured max response.
Tested on: CRL-7250
Test: Cytotoxic Profiling of Annotated Libraries Using Quantitative High-Throughput Screening (AID 1296008); further: on the % scale 0 is the no-effect control and ±100 the full control effect; nearly all actives have a fitted effect of over 60% in size
Conditions: Five cell lines viability, CellTiter-Glo ATP luminescence, 48-72 h; active compounds read low
Records with an inconclusive call do not appear. The source made the active and inactive calls. The call rests on the fitted dose curve; in most records, active means well fitted inhibition curve with a large enough effect; inconclusive means small, poorly fitted or top-dose-only effect; inactive means flat fitted curve, though single readings scatter.
endpoint: max response

> print(dat)
                                    molecule            measured
 1                      NNc1nnc(NN)c2ccccc12    4.89% (inactive)
 2                   NC(=O)CC[C@@H](N)C(=O)O  -0.379% (inactive)
 3  Cc1cc(C)c(NC(=O)CN(CC(=O)O)CC(=O)O)c(C)c1Br   -2.84% (inactive)
 4       CC(C)NC[C@@H](O)COc1ccc(CC(N)=O)cc1   -2.68% (inactive)
 5                CCCNC(C)(C)COC(=O)c1ccccc1   -0.75% (inactive)
 6                 C/C=C/C(=O)N(CC)c1ccccc1C   -6.75% (inactive)
 7               OCC(O)CS (stereo not given)   -11.9% (inactive)
 8                         O=C(O)CCCc1ccccc1    1.18% (inactive)
 9                  CC[C@H](C)[C@H](N)C(=O)O    -1.3% (inactive)
10               CC(=O)NS(=O)(=O)c1ccc(N)cc1   -3.19% (inactive)
11      CC(C)=CCC[C@@](C)(O)[C@H]1CC=C(C)CC1    1.58% (inactive)
12  C[C@@H](c1ncncc1F)C(O)(Cn1cncn1)c1ccc(F)cc1F (stereo not given in full)   -4.65% (inactive)
13                   Cc1ccsc1/C=C/C1=NCCCN1C     3.4% (inactive)
14  O=C(c1ccccc1)C(O)c1ccccc1 (stereo not given)   -6.36% (inactive)
15  CC(=O)Nc1ccc(OCCOCCOc2ccc(NC(C)=O)cc2)cc1   0.416% (inactive)
16                                 CCOC(N)=O    1.79% (inactive)
17      NC(=O)CCCCC1CCSS1 (stereo not given)   -9.01% (inactive)
18                       CN1C(C)(C)CCCC1(C)C   -19.2% (inactive)
19      CN(C/C=C/C#CC(C)(C)C)Cc1cccc2ccccc12   -11.8% (inactive)
20               CCN(CC)CCc1nc(-c2ccccc2)no1    3.52% (inactive)
